Tested on: Staphylococcus aureus
test-summary: Inhibition of planktonic growth of Staphylococcus aureus SH1000
Format: organism-based
readout-name: IC50

Known results for molecules:
smiles-record	IC50
O=c1cc(-c2ccccc2)oc2cc(O)c(O)c(O)c12	> 400 µM
CC(C)(C)c1ccc(Cc2nc(N)n(CC(=O)Nc3ccc([N+](=O)[O-])cc3)c2-c2ccccc2Br)cc1	> 400 µM
Nc1nc(CC2CCCCC2)c(-c2ccccc2Br)n1CC(=O)Nc1ccccc1	> 400 µM
CCCCCCCc1nc(N)n(CC(=O)Nc2ccc(C)cc2)c1-c1ccccc1Br	22.8 µM

Inquiry: Suppose we examine the molecule "Cc1ccc(NC(=O)Cn2c(N)nc(CC3CCCCC3)c2-c2ccccc2Br)cc1" ; what IC50 value has been reported?
Reply text: > 400 µM

----------
Tested on: Staphylococcus aureus
test-summary: Inhibition of planktonic growth of Staphylococcus aureus SH1000
Format: organism-based
Would you kindly list pIC50 for each of these compounds?
Give bare numbers, as −log10 of the molar value.

Known results for compounds:
smiles-record	pIC50
COc1ccc(Cc2nc(N)n(CC(=O)Nc3ccc(C)cc3)c2-c2ccccc2Br)cc1	4.79
CCCCCCCc1nc(N)n(CC(=O)Nc2ccccc2)c1-c1ccccc1Br	4.15
Cc1ccc(NC(=O)Cn2c(N)nc(Cc3ccccc3)c2-c2ccccc2Br)cc1	4.91
Nc1nc(Cc2ccccc2)c(-c2ccccc2Br)n1CC(=O)NCc1ccccc1	4.25

Pending compound:
Inquiry: Provide the documented pIC50 with Staphylococcus aureus as the system for "COc1ccc(NC(=O)Cn2c(N)nc(Cc3ccc(C(C)(C)C)cc3)c2-c2ccccc2Br)cc1"
Reply text: 4.43

----------
Tested on: Staphylococcus aureus
test-summary: Inhibition of planktonic growth of Staphylococcus aureus SH1000
Format: organism-based
Would you kindly list pIC50 for each of these compounds?
Numbers only, as −log10 of the molar value.

Known results for compounds:
smiles-record	pIC50
Cc1ccc(NC(=O)Cn2c(N)nc(CC3CC3)c2-c2ccccc2Br)cc1	4.51
Cc1ccc(NC(=O)Cn2c(N)nc(Cc3ccc(C(C)(C)C)cc3)c2-c2ccccc2Br)cc1	5.10
CC(C)(C)c1ccc(Cc2nc(N)n(CC(=O)Nc3ccccc3)c2-c2ccccc2Br)cc1	5.11
Nc1nc(CC2CC2)c(-c2ccccc2Br)n1CC(=O)Nc1ccccc1	3.89
CCCCCCc1nc(N)n(CC(=O)Nc2ccccc2)c1-c1ccccc1Br	4.79
CCCCCCc1nc(N)n(CC(=O)Nc2ccc(C)cc2)c1-c1ccccc1Br	4.64
Cc1ccc(Cc2nc(N)n(CC(=O)Nc3ccc(C)cc3)c2-c2ccccc2Br)cc1	5.24
COc1ccc(Cc2nc(N)n(CC(=O)Nc3ccccc3)c2-c2ccccc2Br)cc1	4.63

Pending compound:
Inquiry: Suppose we examine the compound "CCCCCc1nc(N)n(CC(=O)Nc2ccc(C)cc2)c1-c1ccccc1Br" ; what pIC50 value has been reported?
Reply text: 4.48

----------
Would you kindly list log10(MBIC50) for each of these molecules?
Test system: Salmonella typhimurium
test-summary: Antibiofilm activity against Salmonella typhimurium ATCC 14028 after 24 hrs by crystal violet staining based method
Assay type: functional, Salmonella enterica subsp. enterica serovar Typhimurium
Log scale reminder: MBIC50 in µM, then log10 taken.

Known results for molecules:
smiles-record	experimental-system	assay-value
Nc1nc(Cc2ccccc2)c(-c2ccccc2Br)n1CC(=O)NCc1ccccc1	Salmonella typhimurium	1.59
CCCCCCCc1nc(N)n(CC(=O)Nc2ccccc2)c1-c1ccccc1Br	Salmonella typhimurium	2.06
Cc1ccc(Cc2nc(N)n(CC(=O)Nc3ccc(C)cc3)c2-c2ccccc2Br)cc1	Salmonella typhimurium	0.56
CCCCCCCc1nc(N)n(CC(=O)Nc2ccc(C)cc2)c1-c1ccccc1Br	Salmonella typhimurium	1.58
Cc1ccc(NC(=O)Cn2c(N)nc(CC3CC3)c2-c2ccccc2Br)cc1	Salmonella typhimurium	1.33
CC(C)(C)c1ccc(Cc2nc(N)n(CC(=O)Nc3ccccc3)c2-c2ccccc2Br)cc1	Salmonella typhimurium	1.10

Please give log10(MBIC50), item by item, for the list that follows.
1. COc1ccc(Cc2nc(N)n(CC(=O)Nc3ccccc3)c2-c2ccccc2Br)cc1
2. CCCCCCc1nc(N)n(CC(=O)Nc2ccc(C)cc2)c1-c1ccccc1Br

Reply text:
1: 1.23; 2: 1.34

Please give log10(MBIC50), item by item, for the list that follows.
1. CCCCCc1nc(N)n(CC(=O)Nc2ccc(C)cc2)c1-c1ccccc1Br
2. Cc1ccc(NC(=O)Cn2c(N)nc(Cc3ccc(C(C)(C)C)cc3)c2-c2ccccc2Br)cc1

Reply text:
1.50
1.25

Inquiry: Suppose we examine the molecule "Cc1ccc(NC(=O)Cn2c(N)nc(Cc3ccccc3)c2-c2ccccc2Br)cc1" ; what log10(MBIC50) value has been reported?
Reply text: 0.78
